# Tested on: mice (tail-flick)
# Assay comment: animal or person
# Format: in vivo
# Experimental parameters: Mus musculus, sc, 0.5 h, read-out: ANALGESIA TAIL-FLICK ED50 (a)
Structures can show the parent of a compound that is named as a salt.
Recorded metric: ED50

I have this compound here, O=C(Cc1ccc(Cl)c(Cl)c1)N1CCc2[nH]cnc2C1CN1CCCC1 (stereo not drawn) [Example 23] , and I need its recorded ED50.
> 50 mg/kg

Item O=C(Cc1ccc(Cl)c(Cl)c1)N1CCc2[nH]c3ccccc3c2C1CN1CCCC1 (stereo not drawn) [Example 15, hydrochloride hemihydrate] has what recorded ED50?
> 10 mg/kg

// query ED50 value for entry O=C(Cc1ccc(Cl)c(Cl)c1)N1CCc2[nH]c3ccccc3c2C1CN1CCCCC1 (stereo not drawn) [Example 16]
> 10 mg/kg

Data origin: patent US4999359A
